Origin of the recorded values: patent US20210330611A1

Test system: primary rat microglia
Conditions: rat
Counter-ions that a name gives are not always drawn.
reportedProperty: LPS % cell toxicity (%)

NC[C@@H]1O[C@H](O[C@H]2[C@@H](O)[C@H](O[C@@H]3[C@@H](O)[C@H](N)C[C@H](N)[C@H]3O[C@H]3O[C@H](CO)[C@@H](O)[C@H](O)[C@H]3N)O[C@@H]2CO)[C@H](N)[C@@H](O)[C@@H]1O [Paromomycin Sulfate] = 0
Oc1cccc(O)c1 = 0
CCOC(=O)c1ccc(O)cc1 = 1
CC(C)Cn1cnc2c(N)nc3ccccc3c21 = 0

====

Reported inhibition at 10 µM values follow for various molecules
Tested on: fibrin-induced microglia activation
Test: Image-based assay of fibrin-induced microglia activation (HTS and dose response)
Assay type: cell-based, rat
Conditions: Rattus norvegicus, Microglia, primary HTS, 10 μM, fibrin-stimulated primary microglia; read-out: Fibrin % inhibition
Where a name gives a salt, the structure may show the parent alone.
reportedProperty: inhibition at 10 µM (%)

C=C[C@H]1CN2CC[C@H]1C[C@H]2[C@H](O)c1ccnc2ccccc12 = 13
O=C(OCc1ccccc1)c1ccccc1 [Benzyl Benzoate] = 35
CN(C)CCN(Cc1ccc(Cl)cc1)c1ccccn1 = 25
NS(=O)(=O)c1cc2c(cc1Cl)N=CNS2(=O)=O [Chlorothiazide] = 20
O=C1CN=C(c2ccccc2Cl)c2cc([N+](=O)[O-])ccc2N1 = -12
C[C@H]1C[C@H]2[C@@H]3CCC4=CC(=O)C=C[C@]4(C)[C@@]3(F)[C@@H](O)C[C@]2(C)[C@@]1(O)C(=O)CO [Betamethasone, reference compound] = -4
C[N+]12CCC(CC1)C(OC(=O)C(O)(c1ccccc1)c1ccccc1)C2 (stereo not drawn) [Clidinium Bromide] = -20
Cn1nnnc1SCC1=C(C(=O)O)N2C(=O)[C@@H](NC(=O)[C@H](OC=O)c3ccccc3)[C@H]2SC1 [Cefamandole Nafate] = -3
O=C(O)CCCc1ccc(N(CCCl)CCCl)cc1 = 8
CCCCOC(=O)c1ccc(N)cc1 = -25
NS(=O)(=O)c1ccc(C(=O)O)cc1 [Carzenide] = -24
CO/N=C(\C(=O)N[C@@H]1C(=O)N2C(C(=O)O)=C(CSc3nnnn3C)CS[C@H]12)c1csc(N)n1 [Cefmenoxime Hydrochloride] = -15
CC(C)/N=c1\cc2n(-c3ccc(Cl)cc3)c3ccccc3nc-2cc1Nc1ccc(Cl)cc1 = 23
CCCCNc1cc(C(=O)O)cc(S(N)(=O)=O)c1Oc1ccccc1 [Bumetanide] = -3
CC(C)(Oc1ccc(C2CC2(Cl)Cl)cc1)C(=O)O (stereo not drawn) [Ciprofibrate] = -16
CC1(C)S[C@@H]2[C@H](NC(=O)Cc3ccccc3)C(=O)N2[C@H]1C(=O)O = 29
O=C(N[C@H](CO)[C@H](O)c1ccc([N+](=O)[O-])cc1)C(Cl)Cl = 19
Clc1ccc(Cn2c(CN3CCCC3)nc3ccccc32)cc1 [Clemizole Hydrochloride] = -38
